B1: FBF1 (parent)
chain: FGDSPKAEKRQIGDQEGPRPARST

variants of: B1; assay: protein stability index of a GFP-peptide fusion (GPS, HEK-293T) (PSI 1-6); higher = more stable; conditions: c terminus: a fixed tail appended;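 further: lentivirally expressed fusions sorted by FACS into six bins by GFP to DsRed ratio, PSI derived from sequencing read proportions per bin multiplied by bin number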
Give protein stability index for every item shown.
One number for each entry.

Worked cases, answers included:
variant-label | protein stability index
G17C | 4.94
K6V | 4.24

Quick batch: protein stability index for everything below.
1. P20W
2. I12F
3. R22I

[4.58, 4.47, 5.46]

Quick batch: protein stability index for everything below.
1. Q11S
2. G17I

1. 5.29
2. 4.34

Quick batch: protein stability index for everything below.
1. R22T
2. K9A
3. Q11K
4. G2F
5. A7I
6. G13D

1: 4.8; 2: 4.97; 3: 4.86; 4: 4.63; 5: 5.03; 6: 5.53

Quick batch: protein stability index for everything below.
1. Q15F
2. P5N
3. K6S
4. K9F
5. G13A
6. F1Y
7. P20M

4.32
5.53
5.64
4.43
4.98
5.42
4.96

Which measured protein stability index value corresponds to S4L ?
5.27
